Reference source for all entries: ChEMBL document CHEMBL1152892

Assignment: determine reported GI50 for the given molecules.
- Test system: NCI-H226
- Method: Cytotoxicity against human NCI-H226 cells after 48 hrs by sulforhodamine B assay
- Format: functional
- Condition Description: NCI-H226, 48 h
Answers are plain numbers, in µM.

Illustrative cases are given below, each with its answer.
>>> measured_result("Nc1ccc(-c2nn3c(COc4ccc(Cl)cc4)nnc3s2)cc1")
7.24
>>> measured_result("Cc1nnc2sc(Cc3sc(N)nc3O)nn12")
77.6
>>> measured_result("Sc1nn2c(COc3ccc(Cl)cc3)nnc2s1")
89.1

--- query ---
// GI50 lookup, key: Clc1ccc(OCc2nnc3sc(SSc4nn5c(COc6ccc(Cl)cc6)nnc5s4)nn23)cc1
87.1

----------
- System Under Test: Cyclin-dependent kinase 1/cyclin B1 (Homo sapiens)
- Method: Inhibition of CDK1/Cyclin B
Measured Attribute: IC50

Dear colleague, could you send me IC50 for each of the items below? Thanks.
1. Cc1nnc2sc(SSc3nn4c(C)nnc4s3)nn12
2. c1ccc(CSc2nn3c(Cc4ccccc4)nnc3s2)cc1
3. Cc1nnc2sc(SCc3ccccc3)nn12

1. 6.8 µM
2. 25 µM
3. > 48 µM

----------
- System Under Test: UniProtKB P24941
- Method: Inhibition of CDK2/Cyclin A
pIC50: −log10 of the molar value.
Cut-off 5 on pIC50, inclusive. At or above means fulfilled; below means not fulfilled.

Please review the following examples before continuing.
>>> label_class("Sc1nn2c(Cc3ccccc3)nnc2s1")
"not fulfilled"
>>> label_class("S=c1[nH]c(=S)c2c(Cc3nn4c(Cc5ccccc5)nnc4s3)n[nH]c2[nH]1")
"not fulfilled"
>>> label_class("Cc1nnc2sc(Cc3n[nH]c4[nH]c(=S)[nH]c(=S)c34)nn12")
"not fulfilled"
>>> label_class("Clc1ccc(OCc2nnc3sc(SCc4ccccc4)nn23)cc1")
"not fulfilled"

Given Nc1nc(O)c(Cc2nn3c(COc4ccc(Cl)cc4)nnc3s2)s1 , state whether its pIC50 is at least 5.
fulfilled

----------
- Test system: MCF7
- Method: Antitumor activity against human MCF7 cells assessed as cell growth at 10 uM after 48 hrs by sulforhodamine B assay
- Format: functional
- Condition Description: MCF7, 48 h, read-out: Activity
Consider the following molecules; for each one, report its growth at 10 µM.
Answers are plain numbers, in %.

Hi there! I need growth at 10 µM for each item below, if you can.
1. Nc1ccc(-c2nn3c(COc4ccc(Cl)cc4)nnc3s2)cc1
2. Cc1nnc2sc(-c3ccc(N)cc3)nn12
3. Cc1nnc2sc(Cc3sc(N)nc3O)nn12
4. Clc1ccc(OCc2nnc3sc(SSc4nn5c(COc6ccc(Cl)cc6)nnc5s4)nn23)cc1
5. Sc1nn2c(COc3ccc(Cl)cc3)nnc2s1
6. Nc1nc(O)c(Cc2nn3c(COc4ccc(Cl)cc4)nnc3s2)s1

[128, 119, 130, 147, 0, 0]

----------
- Tested on: HCC 2998
- Method: Cytotoxicity against human HCC2998 cells after 48 hrs by sulforhodamine B assay
- Assay type: functional
The source made the active and inactive calls. The rule behind the calls is not given here.
Measured Attribute: pGI50

Worked cases, answers included:
>>> measured_result("Cc1nnc2sc(Cc3sc(N)nc3O)nn12")
"inactive"
>>> measured_result("Nc1ccc(-c2nn3c(COc4ccc(Cl)cc4)nnc3s2)cc1")
"inactive"
>>> measured_result("Nc1nc(O)c(Cc2nn3c(COc4ccc(Cl)cc4)nnc3s2)s1")
"inactive"
>>> measured_result("Sc1nn2c(COc3ccc(Cl)cc3)nnc2s1")
"inactive"

# evaluate next
I'd like to know its pGI50. The molecule in question is Cc1nnc2sc(-c3ccc(N)cc3)nn12
inactive

----------
- System Under Test: Cyclin-dependent kinase 2 (Homo sapiens, UniProt P24941)
- Method: Inhibition of CDK2/Cyclin A
Measured Attribute: log10(IC50) (log10 of the value in µM)
Recall that a logarithmic scale is used here: each number is log10 of IC50 in µM.

>>> measured_result("NNc1nn2c(COc3ccc(Cl)cc3)nnc2s1")
1.18
>>> measured_result("Cc1nnc2sc(SCc3ccccc3)nn12")
1.20
>>> measured_result("Sc1nn2c(COc3ccc(Cl)cc3)nnc2s1")
-0.40
>>> measured_result("c1ccc(Cc2nnc3sc(SSc4nn5c(Cc6ccccc6)nnc5s4)nn23)cc1")
1.18
>>> measured_result("Nc1ccc(-c2nn3c(COc4ccc(Cl)cc4)nnc3s2)cc1")
-0.48

Here are 4 molecules. What values of log10(IC50) were reported for them?
1. Cc1nnc2sc(Cc3sc(N)nc3O)nn12
2. S=c1[nH]c(=S)c2c(Cc3nn4c(COc5ccc(Cl)cc5)nnc4s3)n[nH]c2[nH]1
3. Cc1nnc2sc(S)nn12
4. Cc1nnc2sc(SSc3nn4c(C)nnc4s3)nn12

-0.60
1.57
0.83
1.36

----------
- System Under Test: Cyclin-dependent kinase 1/cyclin B1 (Homo sapiens, UniProt P06493)
- Sequence (P06493 whole entry): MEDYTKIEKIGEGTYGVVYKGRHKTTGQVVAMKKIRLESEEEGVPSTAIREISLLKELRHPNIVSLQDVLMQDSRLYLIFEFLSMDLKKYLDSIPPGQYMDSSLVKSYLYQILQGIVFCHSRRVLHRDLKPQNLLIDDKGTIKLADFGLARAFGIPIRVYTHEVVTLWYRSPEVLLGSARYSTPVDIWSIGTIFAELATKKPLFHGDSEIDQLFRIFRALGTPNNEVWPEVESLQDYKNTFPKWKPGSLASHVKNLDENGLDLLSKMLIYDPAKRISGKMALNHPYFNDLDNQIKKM
- Sequence (P14635 whole entry, further chain): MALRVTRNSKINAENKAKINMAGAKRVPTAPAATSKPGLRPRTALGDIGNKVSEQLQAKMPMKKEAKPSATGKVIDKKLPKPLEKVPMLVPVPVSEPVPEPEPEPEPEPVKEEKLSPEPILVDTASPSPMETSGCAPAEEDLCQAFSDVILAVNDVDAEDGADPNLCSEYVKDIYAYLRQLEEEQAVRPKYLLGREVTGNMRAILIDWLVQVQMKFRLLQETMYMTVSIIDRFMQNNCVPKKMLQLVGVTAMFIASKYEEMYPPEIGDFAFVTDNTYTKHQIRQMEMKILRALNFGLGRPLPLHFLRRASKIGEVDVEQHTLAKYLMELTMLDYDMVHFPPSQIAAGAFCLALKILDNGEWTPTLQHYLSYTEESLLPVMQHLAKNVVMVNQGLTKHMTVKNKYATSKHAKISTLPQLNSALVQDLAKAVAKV
- Method: Inhibition of CDK1/Cyclin B
Exercise: state measured IC50 for each of the compounds provided.
Numbers only, in µM.

Before answering, review these 2 worked examples.
>>> measured_result("Cc1nnc2sc(S)nn12")
19
>>> measured_result("Clc1ccc(OCc2nnc3sc(SSc4nn5c(COc6ccc(Cl)cc6)nnc5s4)nn23)cc1")
11

Take each entry in turn and give its IC50.
1. Nc1nc(O)c(Cc2nn3c(COc4ccc(Cl)cc4)nnc3s2)s1
2. Sc1nn2c(Cc3ccccc3)nnc2s1

1: 0.91; 2: 25

----------
Exercise: for every item that follows, state its recorded pIC50.
- System Under Test: Cyclin-dependent kinase 1/cyclin B1 (Homo sapiens, UniProt P06493)
- Method: Inhibition of CDK1/Cyclin B
One number for each entry, as −log10 of the molar value.

>>> measured_result("S=c1[nH]c(=S)c2c(Cc3nn4c(COc5ccc(Cl)cc5)nnc4s3)n[nH]c2[nH]1")
4.54
>>> measured_result("Cc1nnc2sc(Cc3sc(N)nc3O)nn12")
4.92

State its pIC50 on Cyclin-dependent kinase 1/cyclin B1 (Homo sapiens, UniProt P06493): Nc1ccc(-c2nn3c(COc4ccc(Cl)cc4)nnc3s2)cc1
5.19

----------
- Test system: ACHN
- Method: Cytotoxicity against human ACHN cells after 48 hrs by sulforhodamine B assay
- Assay type: functional
Activity calls are given as the source filed them. The rule behind the calls is not given here.
Measured Attribute: pGI50

>>> measured_result("Cc1nnc2sc(Cc3sc(N)nc3O)nn12")
"inactive"
>>> measured_result("Sc1nn2c(COc3ccc(Cl)cc3)nnc2s1")
"inactive"
>>> measured_result("Cc1nnc2sc(-c3ccc(N)cc3)nn12")
"inactive"
>>> measured_result("Clc1ccc(OCc2nnc3sc(SSc4nn5c(COc6ccc(Cl)cc6)nnc5s4)nn23)cc1")
"inactive"

----------
- Test system: KM12
- Method: Cytotoxicity against human KM12 cells after 48 hrs by sulforhodamine B assay
- Assay type: functional
- Condition Description: KM12, 48 h
Measured Attribute: GI50 (µM)
Numbers only, in µM.

>>> measured_result("Nc1nc(O)c(Cc2nn3c(COc4ccc(Cl)cc4)nnc3s2)s1")
7.41

Now for another entry.
Need GI50, item Cc1nnc2sc(Cc3sc(N)nc3O)nn12
97.7

----------
- System Under Test: Cyclin-dependent kinase 1/cyclin B1 (Homo sapiens)
- Method: Inhibition of CDK1/Cyclin B
- Format: protein-complex assay
Measured Attribute: pIC50
Answers are plain numbers, as −log10 of the molar value.

>>> measured_result("S=c1[nH]c(=S)c2c(Cc3nn4c(Cc5ccccc5)nnc4s3)n[nH]c2[nH]1")
4.85
>>> measured_result("Sc1nn2c(COc3ccc(Cl)cc3)nnc2s1")
6.05
>>> measured_result("NNc1nn2c(COc3ccc(Cl)cc3)nnc2s1")
4.55
>>> measured_result("c1ccc(Cc2nnc3sc(SSc4nn5c(Cc6ccccc6)nnc5s4)nn23)cc1")
5.28

Fill in the blank: the reported pIC50 of Cc1nnc2sc(NN)nn12 is ____.
4.66

----------
- System Under Test: UniProt P24941
- Method: Inhibition of CDK2/Cyclin A
Mark TRUE only when IC50 stays strictly below 10 µM. Values equal to the cut-off are FALSE.

Known results for compounds:
>>> label_class("CCSc1nn2c(C)nnc2s1")
"FALSE"
>>> label_class("Cc1nnc2sc(-c3ccc(N)cc3)nn12")
"TRUE"
>>> label_class("Nc1nc(O)c(Cc2nn3c(Cc4ccccc4)nnc3s2)s1")
"FALSE"

Is IC50 strictly under 10 µM for the entry Cc1nnc2sc(NN)nn12 ?
FALSE

Another compound to check: CCSc1nn2c(Cc3ccccc3)nnc2s1
FALSE

What do you get for Clc1ccc(OCc2nnc3sc(SSc4nn5c(COc6ccc(Cl)cc6)nnc5s4)nn23)cc1 ?
TRUE

Param item: CCSc1nn2c(COc3ccc(Cl)cc3)nnc2s1
FALSE

----------
Can you tell me pIC50 for the items I'm about to list?
- System Under Test: Cyclin-dependent kinase 2 (Homo sapiens)
- Method: Inhibition of CDK2/Cyclin A
pIC50: −log10 of the molar value.

Previously resolved entries follow.
>>> measured_result("Nc1ccc(-c2nn3c(Cc4ccccc4)nnc3s2)cc1")
"< 4.55"
>>> measured_result("c1ccc(CSc2nn3c(Cc4ccccc4)nnc3s2)cc1")
"< 4.55"

# input for lookup
Could you share which pIC50 value was measured for NNc1nn2c(Cc3ccccc3)nnc2s1 ?
< 4.55
